# Study Target: human ether-à-go-go-related gene (hERG) potassium channel (human, UniProt Q12809)
# Sequence (Q12809 whole entry, looked up): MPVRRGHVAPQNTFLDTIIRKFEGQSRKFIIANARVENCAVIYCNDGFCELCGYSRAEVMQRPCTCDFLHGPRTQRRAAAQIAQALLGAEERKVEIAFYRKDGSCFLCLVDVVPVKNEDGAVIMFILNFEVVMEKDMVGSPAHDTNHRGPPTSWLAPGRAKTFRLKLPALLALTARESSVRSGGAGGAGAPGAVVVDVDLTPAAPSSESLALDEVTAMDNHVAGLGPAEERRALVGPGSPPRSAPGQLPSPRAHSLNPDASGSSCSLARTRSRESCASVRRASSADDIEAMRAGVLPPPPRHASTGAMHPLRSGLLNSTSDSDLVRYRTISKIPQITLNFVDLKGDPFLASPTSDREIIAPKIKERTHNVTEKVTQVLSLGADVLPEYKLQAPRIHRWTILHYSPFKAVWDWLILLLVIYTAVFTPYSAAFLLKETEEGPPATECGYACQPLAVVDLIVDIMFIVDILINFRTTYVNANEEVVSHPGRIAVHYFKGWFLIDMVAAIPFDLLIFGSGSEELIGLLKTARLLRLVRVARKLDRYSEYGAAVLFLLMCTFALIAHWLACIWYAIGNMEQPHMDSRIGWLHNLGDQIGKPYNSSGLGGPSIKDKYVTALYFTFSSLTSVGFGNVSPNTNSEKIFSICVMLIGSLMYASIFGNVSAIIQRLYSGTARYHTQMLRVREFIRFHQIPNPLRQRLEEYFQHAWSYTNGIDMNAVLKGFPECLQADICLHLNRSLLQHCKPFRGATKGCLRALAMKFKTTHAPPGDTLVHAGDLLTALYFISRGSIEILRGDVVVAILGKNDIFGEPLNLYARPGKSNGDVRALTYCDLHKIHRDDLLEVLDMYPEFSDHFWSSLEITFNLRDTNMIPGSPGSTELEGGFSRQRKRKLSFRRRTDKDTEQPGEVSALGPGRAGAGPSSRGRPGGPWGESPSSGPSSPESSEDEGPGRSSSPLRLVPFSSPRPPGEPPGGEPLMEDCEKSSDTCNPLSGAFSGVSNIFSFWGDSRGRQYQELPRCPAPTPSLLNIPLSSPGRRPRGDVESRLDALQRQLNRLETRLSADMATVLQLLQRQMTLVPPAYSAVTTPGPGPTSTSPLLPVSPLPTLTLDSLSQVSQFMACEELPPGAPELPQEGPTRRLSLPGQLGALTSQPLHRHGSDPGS
# Assay Protocol: primary screen, population patch clamp on CHO cells stably expressing hERG; higher = less effect of the substance
Hit rate of the full screen: of about 310,000 compounds, about 2,200 (0.71%) showed an effect of 50% or more. Effects have a minus sign here. This excerpt belongs to a sample that is enriched for strong results.
Reported hERG current change (%, negative = inhibition) at 1uM by item:
Value Type: hERG current change (%, negative = inhibition) at 1uM (%)

{"Molecule": "O=Cc1c(NCCc2ccc(F)cc2)c2ccccc2[nH]c1=O", "Unit Tag": "%", "Observed Value": 4.06}
{"Molecule": "Cc1cc(N2CCN(c3nc4ccccc4s3)CC2)n2ncnc2n1", "Unit Tag": "%", "Observed Value": -74.9}
{"Molecule": "Cc1ccc(NC(=O)C(c2ccccc2)N2CCN(CC(=O)NC3CC3)CC2)cc1Cl (centres unmarked)", "Unit Tag": "%", "Observed Value": -2.31}
{"Molecule": "CC(C)(CN=C1NS(=O)(=O)c2ccccc21)CNC(=O)CN1C(=O)c2ccccc2C1=O", "Unit Tag": "%", "Observed Value": -1.01}
{"Molecule": "CCOC(=O)c1ccc(NC(=O)c2nc[nH]c2C(=O)NCCCNC(=O)c2[nH]cnc2C(=O)Nc2ccc(C(=O)OCC)cc2)cc1", "Unit Tag": "%", "Observed Value": 13.8}
{"Molecule": "Cl.NCCCCC(=O)O", "Unit Tag": "%", "Observed Value": 11.5}
{"Molecule": "O=C(c1ccc(O)cc1)c1ccc(Cl)cc1", "Unit Tag": "%", "Observed Value": -3.35}
{"Molecule": "Cc1cc(N2CCN(S(=O)(=O)Cc3ccccc3)CC2)n2ncnc2n1", "Unit Tag": "%", "Observed Value": -11.4}
{"Molecule": "CCOC(=O)Cc1nnc(NC(=O)c2ccco2)s1", "Unit Tag": "%", "Observed Value": 5.45}
{"Molecule": "CCN(C(=O)CSc1nc2cc(C(=O)OC)ccc2c(=O)n1Cc1ccco1)c1cccc(C)c1", "Unit Tag": "%", "Observed Value": 7.87}
{"Molecule": "COc1ccccc1C(=O)Nc1ccnn1C1CCN(C(C)CSC)CC1 (centres unmarked)", "Unit Tag": "%", "Observed Value": -10.6}
{"Molecule": "O=C(O)C1CC=CCC1C(=O)N1CCCC1 (centres unmarked)", "Unit Tag": "%", "Observed Value": -1.33}
{"Molecule": "CSCCCN1CCC(n2nccc2NC(=O)CCCc2ccccc2)CC1", "Unit Tag": "%", "Observed Value": -28.5}
{"Molecule": "CC(C)CNc1c2c(nc3ccccc13)CCC2.Cl", "Unit Tag": "%", "Observed Value": -33.5}
{"Molecule": "CC(=O)Nc1ccc(S(=O)(=O)N2CCN(c3cc(C)nc4ncnn34)CC2)cc1", "Unit Tag": "%", "Observed Value": -9.05}
{"Molecule": "Cc1ccc(OCCNC(=O)CNC(=O)c2ccc(C)c(C)c2)cc1", "Unit Tag": "%", "Observed Value": 4.24}
{"Molecule": "Cc1cnc(C(=O)NNC(=O)c2ccc(Br)cc2)cn1", "Unit Tag": "%", "Observed Value": 2.55}
{"Molecule": "Cc1ccccc1Nc1nc(N)nc(CN2CCN(Cc3ccc4c(c3)OCO4)CC2)n1", "Unit Tag": "%", "Observed Value": -45.4}
{"Molecule": "COc1cc2c(cc1OC)[C@H](Cc1ccc(O)cc1)NCC2", "Unit Tag": "%", "Observed Value": 10.8}
{"Molecule": "Cc1cccc(C)c1NC(=O)CCCSc1nnc(N)s1", "Unit Tag": "%", "Observed Value": 8.09}
{"Molecule": "Cc1cc(N2CCN(C/C=C/c3ccccc3)CC2)n2ncnc2n1", "Unit Tag": "%", "Observed Value": -52.2}
{"Molecule": "Cc1cccnc1NC(=O)Nc1cccc2ccccc12", "Unit Tag": "%", "Observed Value": 0.589}
{"Molecule": "Cc1ccc(C2=NN=C(NC(=O)CSc3nnc4c5ccccc5n(C)c4n3)SC2)cc1", "Unit Tag": "%", "Observed Value": 8.27}
{"Molecule": "Cl.c1ccc(CNc2c3c(nc4ccccc24)CCC3)cc1", "Unit Tag": "%", "Observed Value": -75.8}
{"Molecule": "Cc1cc(N2CCN(S(=O)(=O)c3ccc(Br)cc3)CC2)n2ncnc2n1", "Unit Tag": "%", "Observed Value": -84.8}
{"Molecule": "CN(C(=O)c1ccc(Cl)nc1)C1(c2ccccc2Cl)CCCCC1=O (centres unmarked)", "Unit Tag": "%", "Observed Value": 5.36}
{"Molecule": "O=C(Nc1ccc(F)cc1)C1CC2CCC1C2 (centres unmarked)", "Unit Tag": "%", "Observed Value": 12.7}
{"Molecule": "Cc1ccc(C(=O)C(C)OC(=O)c2ccccc2[N+](=O)[O-])cc1 (centres unmarked)", "Unit Tag": "%", "Observed Value": 8}
{"Molecule": "O=C(CN1C(=O)c2cccnc2Oc2ccc(Cl)cc21)Nc1ccc(F)cc1", "Unit Tag": "%", "Observed Value": 14.1}
{"Molecule": "COc1cc(CN2CCN(c3ccccc3C)CC2)cc([N+](=O)[O-])c1O", "Unit Tag": "%", "Observed Value": 7.17}
{"Molecule": "Cc1cc(N2CCN(c3ccccc3)CC2)n2ncnc2n1", "Unit Tag": "%", "Observed Value": -7.73}
{"Molecule": "COc1ccc(C(=O)Nc2ccnn2C2CCN(CCC(C)c3ccc(C)o3)CC2)cc1 (centres unmarked)", "Unit Tag": "%", "Observed Value": -18}
{"Molecule": "COCCn1c(=NC(=O)c2cccs2)sc2cc(NC(C)=O)ccc21", "Unit Tag": "%", "Observed Value": 0.283}
{"Molecule": "COc1cccc(CCc2nnc(CCC(=O)N3CCN(Cc4ccccn4)CC3)o2)c1", "Unit Tag": "%", "Observed Value": 10.2}
{"Molecule": "O=C(O)CCC(=O)Nc1cccc(-c2csc(-c3ccccc3)n2)c1", "Unit Tag": "%", "Observed Value": 4.25}
{"Molecule": "Cl.c1ccc(CNc2nc(NCc3ccccc3)c3ccccc3n2)cc1", "Unit Tag": "%", "Observed Value": 16.8}
{"Molecule": "O=C(NCCCCc1ccccc1)Nc1cccc(F)c1", "Unit Tag": "%", "Observed Value": 4.51}
{"Molecule": "Cc1nc2sccn2c(=O)c1S(=O)(=O)Nc1ccc(N2CCN(C)CC2)cc1", "Unit Tag": "%", "Observed Value": 21.4}
{"Molecule": "O=C(CN1CCN(C(C(=O)Nc2ccc(Cl)cc2C(F)(F)F)c2ccccc2)CC1)NC1CC1 (centres unmarked)", "Unit Tag": "%", "Observed Value": -50.1}
{"Molecule": "O=C(c1ccc(OC2CCN(C/C=C/c3ccccc3)CC2)cc1)N1CCCC1", "Unit Tag": "%", "Observed Value": -27.1}
{"Molecule": "Cc1cc(N2CCN(c3ccc(F)cc3)CC2)n2ncnc2n1", "Unit Tag": "%", "Observed Value": -14.8}

====

Reported hERG current change (%, negative = inhibition) at 1uM by item:
# Study Target: human ether-à-go-go-related gene (hERG) potassium channel (human, UniProt Q12809)
# Assay Protocol: primary screen, population patch clamp on CHO cells stably expressing hERG; higher = less effect of the substance
The whole screen tested about 310,000 compounds, of which about 2,200 (0.71%) showed an effect of 50% or more. Effects have a minus sign here. The sample holds strong results, similar compounds and a random draw of the others, so the mix is not that of the screen.
Value Type: hERG current change (%, negative = inhibition) at 1uM

{"Compound": "CN(C(=O)c1ccc(S(=O)(=O)N2CCCCC2)cc1)C1CCS(=O)(=O)C1 (centres unmarked)", "Observed Value": "-3.22%"}
{"Compound": "O=[N+]([O-])c1ccc(C(O)CN2CCOCC2)cc1 (centres unmarked)", "Observed Value": "18.6%"}
{"Compound": "COc1ccc(N2CCN(C(=O)c3ccc(N4CCCCS4(=O)=O)cc3)CC2)cc1", "Observed Value": "10.7%"}
{"Compound": "Cl.O=C(c1ccco1)N1CCN(CCOc2ccc(F)cc2)CC1", "Observed Value": "-0.809%"}
{"Compound": "CCCCCn1c2c(c(=N)c3ccccc31)CCC2.I", "Observed Value": "-61.5%"}
{"Compound": "O=C(CP(=O)(c1ccccc1)c1ccccc1)N1CCCCC1", "Observed Value": "6.28%"}
{"Compound": "Cl.O=C(c1ccco1)N1CCN(CCCCOc2ccc(F)cc2)CC1", "Observed Value": "-74.8%"}
{"Compound": "CCCCOc1ccc(C(=O)NCC(=O)N2CC=C(c3ccccc3)CC2)cc1", "Observed Value": "10.7%"}
{"Compound": "CCOc1ccc(CN(C)CC(O)COC(c2ccc(OC)cc2)c2ccc(OC)cc2)cc1 (centres unmarked)", "Observed Value": "-81.9%"}
{"Compound": "O=C(CCC1CCN(C(=O)c2ccccc2Cl)CC1)NCc1ccc(F)cc1", "Observed Value": "4.08%"}
{"Compound": "CCc1ccccc1NC(=O)c1ccc(Cn2cc([N+](=O)[O-])cn2)cc1", "Observed Value": "-3.78%"}
{"Compound": "C=CCNC(=O)c1onc(CSc2cccc(OC)c2)c1C(=O)O", "Observed Value": "18.7%"}
{"Compound": "CN1CCNC(=O)C1CC(=O)N1CC=C(c2ccc(F)cc2)CC1 (centres unmarked)", "Observed Value": "16.2%"}
{"Compound": "COc1ccc(C(OCC(O)CN(C)C2CCCCC2)c2ccc(OC)cc2)cc1 (centres unmarked)", "Observed Value": "-29.3%"}
{"Compound": "N#Cc1nc(COc2cccc(Cl)c2)oc1NCCN1CCOCC1", "Observed Value": "-22.3%"}
{"Compound": "Cl.NC(=O)c1ccc(OCCC(O)N2CC=C(c3ccc(F)cc3)CC2)cc1 (centres unmarked)", "Observed Value": "-53%"}
{"Compound": "COc1ccc(CN(C)CC(O)COC(c2ccc(OC)cc2)c2ccc(OC)cc2)cc1 (centres unmarked)", "Observed Value": "-80.8%"}
{"Compound": "CCOC(=O)c1cc2c(=O)n3cccc(C)c3nc2n(Cc2ccco2)c1=NC(=O)c1ccccc1", "Observed Value": "0.671%"}
{"Compound": "O=C(Nc1ccccc1)N1CCCc2ccccc21", "Observed Value": "-28.2%"}
{"Compound": "COc1ccc(C2=NOC(C(=O)NCc3cccs3)C2)cc1 (centres unmarked)", "Observed Value": "21.3%"}
{"Compound": "CCC(=O)Nc1ccc(-c2nnc(SCC(=O)NCC3CCCO3)n2C)cc1 (centres unmarked)", "Observed Value": "14.4%"}
{"Compound": "CCOC(=O)c1cc2c(=O)n3cccc(C)c3nc2n(CC(C)C)c1=NC(=O)c1ccco1", "Observed Value": "-64.7%"}
{"Compound": "CCOc1cc(C2NC(=O)NC(C)=C2C(=O)OC(C)CC)cc(Br)c1O (centres unmarked)", "Observed Value": "10.2%"}
{"Compound": "Cc1cc(OCc2cccc(S(=O)(=O)N3CCOCC3)c2)ccc1Cl", "Observed Value": "4.05%"}
{"Compound": "CCC(CC)NC(=O)Nc1ccccc1C", "Observed Value": "11.5%"}
{"Compound": "Br.CCn1c2c(c(=N)c3ccccc31)CCC2", "Observed Value": "12%"}
{"Compound": "CCOC(=O)Cn1c2c(c(=N)c3ccccc31)CCC2.Cl", "Observed Value": "12.7%"}
{"Compound": "CCOCCCn1c(=NC(=O)c2ccco2)c(C(=O)OCC)cc2c(=O)n3cccc(C)c3nc21", "Observed Value": "-73.9%"}
{"Compound": "O=C(CCC1CCN(C(=O)c2ccco2)CC1)NCc1ccc(F)cc1", "Observed Value": "-62%"}
{"Compound": "CCN(Cc1ccccc1)C(=O)CN1C(=S)NC(C)(C)CC1C (centres unmarked)", "Observed Value": "3.12%"}
{"Compound": "O=C(c1ccco1)N1CCN(C(=S)NCc2ccc(F)cc2)CC1", "Observed Value": "-3.27%"}
{"Compound": "CCCCCn1c(=NC(=O)c2ccco2)c(C(=O)OCC)cc2c(=O)n3ccccc3nc21", "Observed Value": "-30.9%"}
{"Compound": "CC(OC(=O)C1CCCCC1)C(=O)Nc1ccc(S(N)(=O)=O)cc1 (centres unmarked)", "Observed Value": "9.37%"}
{"Compound": "COc1ccccc1C(=O)C1CCCN(C(=O)c2cccc(-n3cccn3)c2)C1 (centres unmarked)", "Observed Value": "9.07%"}
{"Compound": "O=C(c1ccco1)N1CCN(CCOc2ccccc2)CC1", "Observed Value": "10.3%"}
{"Compound": "O=C(N/N=C1/CCc2ccccc21)C1CC1", "Observed Value": "6.47%"}
{"Compound": "CCN(Cc1ccccc1)CC(O)COC(c1ccc(OC)cc1)c1ccc(OC)cc1 (centres unmarked)", "Observed Value": "-32.9%"}
{"Compound": "CC(C(=O)Oc1ccc2c(c1)OCO2)N1C(=O)c2ccccc2C1=O (centres unmarked)", "Observed Value": "-1.93%"}
{"Compound": "CCCCCCCn1c2c(c(=N)c3ccccc31)CCC2.I", "Observed Value": "-89.6%"}
{"Compound": "COc1ccccc1C(=O)Nc1nnc(-c2ccco2)s1", "Observed Value": "13.9%"}
{"Compound": "CN(C)CCN(C(=O)CN1C(=O)c2ccccc2C1=O)c1nc2cc3c(cc2s1)OCO3.Cl", "Observed Value": "7.04%"}
